test system: Trypanosoma brucei; assay: Trypanosoma brucei 72 hour study; format: functional, organism-based; design: scale not given: in the data most compounds retested in dose-response had high values; conditions: 30.3 µM; […]
Out of some 66,000 compounds screened, about 960 (1.5%) showed an effect of 50% or more. The sample as a whole holds a higher share of strong results than the screen did.
Lab note - cut at -70% for Percent Effect: Met if strictly below, Not met if not.

Threshold test, Percent Effect < -70%: `O=C(CCOCC(F)(F)F)NS(=O)(=O)c1cccnc1` Not met

Threshold test, Percent Effect < -70%: Cc1ncc(CN2CCOC(c3ccc(-c4cnn(C)c4)cn3)C2)s1 (centres undefined) Not met

Identify whether the compound `O=C(Nc1cnccn1)[C@@H]1CCO[C@@H]2CCN(Cc3ccsc3)C[C@@H]21.O=C(O)C(F)(F)F` records Percent Effect below -70%. Met

Please indicate whether the reported Percent Effect of Cc1nccc(NCc2cncc3c2CCN(CC2CCOC2)C3)n1.Cl.Cl (centres undefined) is strictly below -70%. Met

Is -70% strictly greater than the compound's reported Percent Effect? compound: CC(C)C(=O)N1CCCC2(C1)CN(c1nncs1)CCO2.O=C(O)C(F)(F)F (centres undefined) Met

Is it true that Percent Effect reported for `N#Cc1cccc(S(=O)(=O)NC(=O)CCOCC(F)(F)F)c1` is less than -70%? Not met

In plain terms, does `COc1ccc(CN2CCO[C@H]3[C@H](OCc4ccncc4)CC[C@@H]32)cc1.O=C(O)C(F)(F)F.O=C(O)C(F)(F)F` come in under -70% for Percent Effect? Met

I'd appreciate it if you could check whether Cc1ccsc1C(=O)N1CCC2(CC(N(C)c3ccncn3)C2)C1 (centres undefined) has Percent Effect smaller than -70%. Not met

====

For each entry below, report its Percent Effect value.
system: Trypanosoma brucei; assay: Trypanosoma brucei 72 hour study; type: functional, organism-based; parameters: scale not given: in the data most compounds retested in dose-response had high values; conditions: 30.3 µM; […]
Hit rate of the full screen: of about 66,000 compounds, about 960 (1.5%) showed an effect of 50% or more. What follows is part of a selection rich in strong results, with near analogues and random picks from the rest.
Answer format: numeric, % implied, no suffix.

So what does the record say about Percent Effect for `CCCS(=O)(=O)N1CCO[C@H]2[C@@H](Oc3cccnc3)CC[C@@H]21.O=C(O)C(F)(F)F` ? -3.605

Quick one: Percent Effect for `Cl.OC1(Cn2ccc3ncccc32)CCN(Cc2ccccc2F)CC1` ? 12.85

I have this compound here, `Cc1cc(-c2nccs2)nc(C2CCN(Cc3ccc(F)cc3)CC2)n1.Cl` , and I need its recorded Percent Effect. -1.786

Using the record for Cl.O=C1CC2(CCCNC2)C(=O)N1Cc1cccc(Cl)c1 (stereo not drawn) , report its Percent Effect. 2.467

I'd like to know its Percent Effect. The compound in question is CC(C)(C)c1cn2c(n1)C(CNCc1ccccn1)CCC2 (stereo not drawn) 52.9

Requested read-out: Percent Effect. Entry: `Cc1cccc(CN2CCc3onc(CO)c3C2)n1.O=C(O)C(F)(F)F` -52.13

Consider the compound CS(=O)(=O)N1CCCC1c1cccc(Nc2nccs2)n1 (stereo not drawn) and give its measured Percent Effect. 92.1

Please look up its Percent Effect: Cc1ccccc1CN1CCCC1c1cccc(Nc2nccs2)n1 (stereo not drawn) 5.594

So what's the measured Percent Effect for this one? `c1sc(C2CCCCC2)nc1CN1CCn2c(nnc2C2CC2)C1` 99.05

Requested field: Percent Effect. Item: Cc1nc(C)c(CNCC2CCCn3ccnc32)s1 (stereo not drawn) -1.913

Report Percent Effect for `CN(C)CCN1CCN(C)c2nc(-c3ccccc3)ncc2C1=O` please. 17.36

Reported Percent Effect, compound Cn1cccc1CNCc1nnc2n1CCCC2C(F)(F)F (stereo not drawn) : ____ -4.039

I have this compound here, `COc1cccc(CN(Cc2ccco2)Cc2cnc(C)n2C)c1.O=C(O)CC(O)(CC(=O)O)C(=O)O` , and I need its recorded Percent Effect. 15.04

Tell me the measured Percent Effect of CC(C)(C)c1cn2c(n1)C(CNCc1cnn3ccccc13)CCC2 (stereo not drawn) , please. 100

# input compound: COCC(=O)N1CCCCC1c1ccnc(Nc2ncc(C)s2)n1 (stereo not drawn) ; wanted: its Percent Effect 16.03

So what's the measured Percent Effect for this one? `Cc1cccc(CN(Cc2ccccn2)Cc2ncc(C(C)(C)C)o2)c1` 99.39

# Percent Effect lookup, item Cn1cccc1CNCC1CCCn2cc(C(C)(C)C)nc21 (stereo not drawn) 99.88

Quick one: Percent Effect for `Cc1noc(C)c1C(=O)NCc1ccc(N2CCC(C)CC2)nc1` ? 4.367

What does the record list as Percent Effect for Cc1ccc(CNCC2CCCn3ccnc32)s1 (stereo not drawn) ? 6.823

Bench note: what Percent Effect did CC1(c2ccc(Br)cc2)CC(=O)N(CC(N)=O)C1=O (stereo not drawn) show? -17.28

Please look up its Percent Effect: `CN(Cc1nc(N2CCCC2)ncc1-c1ccncc1)C(=O)C(C)(C)C.Cl` 34.69

For `CCc1ccc(-c2ncc3c(n2)N(C)CCN(CCN(C)C)C3=O)cc1` , what is its reported Percent Effect? 100.5

Entry COCC(=O)N1CCCC1c1cccc(Nc2ncc(C)s2)n1 (stereo not drawn) : reported Percent Effect = ? 85.92

====

Record form. Attribute: Percent Effect. Fill in for each entry.
tested on: Trypanosoma brucei; test: Trypanosoma brucei 72 hour study; assay type: functional, organism-based; parameters: scale not given: in the data most compounds retested in dose-response had high values; conditions: 30 µM; 30.03 µM
The whole screen tested about 66,000 compounds, of which about 960 (1.5%) showed an effect of 50% or more. This is one part of a sample in which strong results are shown more often than they occur.
Put down the number, then write its unit next to it.

So what's the measured Percent Effect for this one? COC(=O)c1ccc(N2CCN(C(=O)c3ccncc3)C(C)C2)cc1 (stereo not drawn) 41.83%

# lookup: Percent Effect of `Fc1cccc(CN2C[C@@H]3COC[C@]3(COCc3ccncc3)C2)c1.O=C(O)C(F)(F)F.O=C(O)C(F)(F)F` -8.118%

Entry `COc1ccccc1CN1C[C@@H]2COC[C@]2(COCc2ccncc2)C1.O=C(O)C(F)(F)F.O=C(O)C(F)(F)F` has what Percent Effect? 59.56%

What Percent Effect value was documented for this molecule, `CCOC(=O)c1sc(NC(=O)CN(C)S(C)(=O)=O)c(C#N)c1C` ? -8.874%

Can you look up the measured Percent Effect of `COc1cc(N2C[C@@H]3COC[C@]3(COCc3ccccn3)C2)ncn1.O=C(O)C(F)(F)F.O=C(O)C(F)(F)F` for me? -23.44%

// query Percent Effect value for entry `COc1ccccc1CN1C[C@@H]2COC[C@]2(COc2cccnc2)C1.O=C(O)C(F)(F)F.O=C(O)C(F)(F)F` -13.45%

Endpoint output: Percent Effect of `CC(C)CNC(=O)[C@H]1C[C@@H]2CN(C(=O)NCCc3ccccc3)C[C@H]1O2` . Value? 5.175%

Record request: Percent Effect value, item `CCC1=N[C@@]2(CC[C@@H]3CN(CC4CC4)C[C@@H]32)C(=O)N1CC1CC1.O=C(O)C(F)(F)F` -23.62%

====

Assignment: determine reported Percent Effect for the given molecules.
system: Trypanosoma brucei; assay: Trypanosoma brucei 72 hour study; type: functional, organism-based; design: scale not given: in the data most compounds retested in dose-response had high values; conditions: 30 µM; 30.03 µM
In all, about 66,000 compounds went through this assay and about 960 (1.5%) showed an effect of 50% or more. What follows is part of a selection rich in strong results, with near analogues and random picks from the rest.
// units = %; emit number, no label

Reported Percent Effect for `CC(C)c1nc(CN(C)C(=O)c2ccc3c(c2)OCC(=O)N3)cs1` : what is it? 17.57

Requested read-out: Percent Effect. Entry: O=C(C1CCCN(C2CCOCC2)C1)N1Cc2ccccc2C1 (stereo unspecified) -36.54

Endpoint output: Percent Effect of `CCN(CC(=O)NC)C(=O)Cc1csc(C(C)C)n1` . Value? -25.08

Value lookup for Percent Effect; key = `CC(C)c1nc(CN(C)C(=O)c2ccc3c(c2)OCO3)cs1` 56.82

Name the reported Percent Effect value associated with the molecule `Cc1ccc(C(=O)N2Cc3c(CN4CCCCC4)nn(C)c3C2)o1.O=C(O)C(F)(F)F` 0.5997

Return reported Percent Effect; argument: COc1ccccc1N1CCC(CNCc2cccc(OC)c2OC)C1 (stereo unspecified) 106.6

Reported Percent Effect for `O=C(O)C(F)(F)F.O=C(O)C(F)(F)F.OCCN1CC2(CCN(CC3CC3)CC2)c2ccccc21` : what is it? 101.2

# Percent Effect lookup, item O=C(Cc1cccs1)N1C[C@H]2CN(CC3CCCO3)CC[C@H]2C1.O=C(O)C(F)(F)F (stereo partly specified) -6.249

Bench note: what Percent Effect did `O=C(NCc1cccs1)[C@@H]1CC[C@@H]2[C@@H](CCN2c2ncccn2)O1.O=C(O)C(F)(F)F` show? -28.93

Value lookup for Percent Effect; key = `O=C(Cc1ccccn1)N1CC[C@]2(C[C@@H](Oc3ncccc3F)CO2)C1.O=C(O)C(F)(F)F.O=C(O)C(F)(F)F` -12.46

Please report the recorded Percent Effect for COc1ccc(CC(=O)N2Cc3nccn3CC(CN(C)C)C2)cc1.O=C(O)C(F)(F)F (stereo unspecified) . -47.37
